biological target: hERG channel (Homo sapiens, UniProt Q12809); construct: purchased; host or cells: HEK-293 cells stably expressing hERG (membranes); experiment: [3H]Dofetilide binding assay, HEK-293 cell membrane preparation; settings: hERG Binding: Mean Ki (nM), [3H]dofetilide binding, HEK-293 membranes; mean of n>=3 unless N given
Sequence (Q12809 whole entry): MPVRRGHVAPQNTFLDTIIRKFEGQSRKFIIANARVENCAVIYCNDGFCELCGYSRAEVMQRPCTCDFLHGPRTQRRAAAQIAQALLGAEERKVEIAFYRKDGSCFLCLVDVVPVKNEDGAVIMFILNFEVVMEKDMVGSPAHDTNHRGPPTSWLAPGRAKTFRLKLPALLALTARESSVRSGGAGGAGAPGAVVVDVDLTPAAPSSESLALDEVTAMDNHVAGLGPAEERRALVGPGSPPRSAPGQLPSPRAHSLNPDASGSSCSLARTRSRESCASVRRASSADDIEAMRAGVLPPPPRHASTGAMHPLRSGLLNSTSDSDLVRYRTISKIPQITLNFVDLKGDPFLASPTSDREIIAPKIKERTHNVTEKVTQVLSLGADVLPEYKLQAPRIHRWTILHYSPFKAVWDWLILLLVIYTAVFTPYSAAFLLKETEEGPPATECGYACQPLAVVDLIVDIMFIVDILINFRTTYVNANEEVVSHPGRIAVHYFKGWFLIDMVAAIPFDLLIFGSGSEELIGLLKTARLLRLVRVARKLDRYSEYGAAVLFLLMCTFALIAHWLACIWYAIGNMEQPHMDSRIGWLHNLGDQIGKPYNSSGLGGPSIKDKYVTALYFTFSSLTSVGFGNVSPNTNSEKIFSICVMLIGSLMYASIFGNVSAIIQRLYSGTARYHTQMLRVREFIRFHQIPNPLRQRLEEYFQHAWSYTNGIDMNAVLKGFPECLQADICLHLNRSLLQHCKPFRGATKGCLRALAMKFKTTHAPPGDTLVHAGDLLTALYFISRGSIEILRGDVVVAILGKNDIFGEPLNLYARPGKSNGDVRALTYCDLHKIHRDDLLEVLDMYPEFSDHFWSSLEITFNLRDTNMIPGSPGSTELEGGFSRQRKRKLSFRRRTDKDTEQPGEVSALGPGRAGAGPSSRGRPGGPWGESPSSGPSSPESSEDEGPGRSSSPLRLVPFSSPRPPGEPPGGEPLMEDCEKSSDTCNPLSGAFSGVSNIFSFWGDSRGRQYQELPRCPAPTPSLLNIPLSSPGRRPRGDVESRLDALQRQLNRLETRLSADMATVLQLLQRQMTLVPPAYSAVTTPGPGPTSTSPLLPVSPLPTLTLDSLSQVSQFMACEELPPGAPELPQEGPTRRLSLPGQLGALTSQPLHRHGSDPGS
Category scheme (Ki): LOW: < 500 nM; MEDIUM: ≥ 500 nM and < 4000 nM; HIGH: ≥ 4000 nM

Below, 5 compounds whose answers are already recorded.
compound | qualitative-label
CC(Cc1ccc(F)c(F)c1)NCCCc1ccc(NC(N)=O)cc1 (centres unmarked) | HIGH
CC(Cc1ccc(F)c(F)c1)NCCCc1ccc2nccnc2c1 (centres unmarked) | MEDIUM
CC(Cc1ccccc1)NCCCc1ccc(F)cc1 (centres unmarked) | MEDIUM
CC(Cc1ccc(F)cc1)NCCCc1ccc2[nH]ccc2c1 (centres unmarked) | MEDIUM
CC(Cc1ccc(F)c(F)c1)NCCCc1ccc2[nH]ncc2c1 (centres unmarked) | MEDIUM

// query # classify by Ki band: CC(Cc1ccc(F)cc1)NCCCc1ccncc1 (centres unmarked)
// result HIGH

// query Place this compound in its band: CC(Cc1ccc(F)c(F)c1)NCCCc1cccc(N(C)C)c1 (centres unmarked)
// result MEDIUM

// query Band of CC(Cc1ccc(F)c(F)c1)NCCCc1ccccc1-c1cccnc1 (centres unmarked) ?
// result LOW

// query Could you place CC(Cc1ccc(F)cc1)NCCCc1ccc(NS(C)(=O)=O)cc1 (centres unmarked) in its proper category? Many thanks.
// result LOW

// query Exam item: assign CC(Cc1ccc(F)c(F)c1)NCCCc1ccc(C(N)=O)cc1 (centres unmarked) to the correct category.
// result MEDIUM

// query Bin this entry: CC(Cc1ccc(F)c(F)c1)NCCCc1ccc(Cl)c(Cl)c1 (centres unmarked)
// result LOW

// query Which of the defined bands does the recorded Ki of CC(Cc1ccc(Br)cc1)NCCCc1ccc(N)cc1 (centres unmarked) sit within?
// result MEDIUM

// query Form field 'band' for CC(Cc1ccc(F)c(F)c1)NCCCc1cccc(Cl)c1Cl (centres unmarked)
// result LOW

// query Bin? CC(Cc1ccc(F)c(F)c1)NCCCc1cccc(N)c1 (centres unmarked)
// result HIGH

// query Sort CC(Cc1ccc(F)c(F)c1)NCCCc1ccc(NS(C)(=O)=O)cc1 (centres unmarked) into one of the categories.
// result LOW

// query Category of CC(Cc1ccc(F)c(F)c1)NCCCc1ccccc1Cl (centres unmarked) :
// result LOW

// query Please classify: CC(Cc1ccc(F)cc1)NCCCc1ccc(N(C)C)cc1 (centres unmarked)
// result HIGH

// query Record CC(Cc1ccc(F)c(F)c1)NCCCc1cccc(-c2cccnc2)c1 (centres unmarked) — which class?
// result LOW

// query // bin(item) where item = CC(Cc1ccc(F)c(F)c1)NCCCc1ccc2ncoc2c1 (centres unmarked)
// result HIGH

// query Please let me know in which category the item CSc1ccc(CCCNC(C)Cc2ccc(F)c(F)c2)cc1 (centres unmarked) belongs.
// result LOW

###

assay: Microsomal assays, rat liver microsomes; settings: female, Sprague-Dawley, rat, pH 7.4
measured-parameter: CLint scaled at 0.08 µM (mL/min/kg)
Reply with just the number (in mL/min/kg).

Solved cases below.
molecule | measured-parameter | reported
CC(Cc1ccc(NC(N)=O)cc1)NCCCc1ccc(F)cc1 (stereo not shown) [Compound 302] | CLint scaled at 0.08 µM | 30
CC(Cc1ccc(F)c(F)c1)NCCCc1ccc2nn[nH]c2c1 (stereo not shown) [Compound 312] | CLint scaled at 0.08 µM | 115
CC(Cc1ccc(F)c(F)c1)NCCCc1cccc(C(N)=O)c1 (stereo not shown) [Compound 237] | CLint scaled at 0.08 µM | 30

// query Any idea what its CLint scaled at 0.08 µM is? The molecule is CC(Cc1ccc2nccnc2c1)NCCCc1ccc(F)cc1 (stereo not shown) [Compound 308]
// result 56
